tested on: SF-268 CNS; experiment: NCI-60 one-dose screen, 48 h (100 = growth as untreated, 0 = no growth, -100 = all killed); settings: 10 µM unless noted
About 83,000 compounds went through this panel and 20% of them were active in at least one assay; those are over-represented in the sample as a whole.
Threshold check on growth: strictly below 70% is met; on or above 70% is not met.

The examples below pair each entry with its known result.
[
  {
    "compound": "O=C(c1ccccc1)N1N=C(c2ccc(-n3ccc(C(F)(F)F)n3)c(F)c2)CC1c1ccc[nH]1 (configuration not stated)",
    "study_target": "SF-268 CNS",
    "label_class": "not met"
  },
  {
    "compound": "COc1cc(C2=C(c3cn(C)c4ccccc34)COC2=O)cc(OC)c1OC",
    "study_target": "SF-268 CNS",
    "label_class": "met"
  }
]

Consider the compound `CCOC(=O)c1cc(C(=O)c2ccc(OC)cc2)n2ccc(/C=C/c3cc[n+](CC(=O)c4ccc(OC)cc4)cc3)cc12` . Is its growth strictly less than 70%?
not met

Consider the compound `COc1ccc(/C=C2\Oc3cc(OCCCN4CCCCC4)ccc3C2=O)cc1OC` . Is its growth strictly less than 70%?
not met

Consider the compound `O=C(N/N=C/c1cc2ccccc2n2nnnc12)Nc1ccccc1` . Is its growth strictly less than 70%?
not met

---

Tested on: UACC-257 melanoma
Assay: NCI-60 one-dose screen, 48 h
Conditions: 10 µM unless noted
Description: Cells are grown in 96 well plates and exposed to the test compound for 48 hours. Compounds are tested at a single concentration, which is 10^-5 M for most compounds. The reported endpoint is percent growth (GI% or GIPRCNT), where numbers from 0 - 100% represent growth inhibition, and numbers from -100% - 0 represent cell death. For example, a value of 40 represents 60% growth inhibition. A value of 0 means no net growth occurred over the course of the experiment. […]
This is part of a sample that, as a whole, favours compounds with a hit. Of some 83,000 tested, about 20% had one in any assay. Active and inactive are the calls of the source. How the source made its calls: active means growth percent below 10; inactive means the rest.
Could you please pick one outcome from this set? 1 = active, 0 = inactive

The examples below pair each entry with its known result.
[
  {
    "compound": "CNC(=O)c1cc(Cn2nc(C)c(NC(=O)Nc3ccc(Cl)c(C(F)(F)F)c3)c2C)ccn1",
    "label_class": 0
  },
  {
    "compound": "NC1[C@H](c2c[nH]c3ccccc23)c2c([nH]c3ccccc23)[C@H]1c1c[nH]c2ccccc12 (stereo not given in full)",
    "label_class": 0
  },
  {
    "compound": "CC(C)c1ccc(Nc2ccc3c(OCCCN4CCN(C)CC4)cccc3n2)cc1",
    "label_class": 0
  },
  {
    "compound": "CC1=C(C(=O)/C=C/c2c[nH]c3ccccc23)C(c2ccccc2)NC(=S)N1 (stereo not given)",
    "label_class": 0
  },
  {
    "compound": "COC(=O)c1ccc2c(c1)[n+](=O)c(C(C)=O)c(C(F)(F)F)n2[O-]",
    "label_class": 1
  },
  {
    "compound": "CN(C)CCC(=O)c1ccc([N+](=O)[O-])cc1",
    "label_class": 0
  }
]

For `CCCOc1ccc(/C=N/Nc2cc(C)nc3ccc(Cl)cc23)cc1` , what call appears in the results of this test?
0

For CCOC(=O)C1=C(CCl)NC(=O)NC1c1ccc2c(c1)OCO2 (stereo not given) , what call appears in the results of this test?
0

For `O=C1c2c(c3c4cccc(F)c4[nH]c3c3ccc4ccccc4c23)C(=O)N1O` , what call appears in the results of this test?
0

For `CN(C)CCn1c2ccc(Br)cc2c2nc3ccccc3nc21` , what call appears in the results of this test?
0

For `NC(=O)Nc1ccc(-n2cnc3cc(-c4ccc(O)cc4)ccc32)cc1` , what call appears in the results of this test?
0

For `COc1ccc(Cc2cnc(NC(=O)c3ccc4c(c3)OCCO4)s2)cc1` , what call appears in the results of this test?
0

For `Cc1ccc(C(=O)/C(=C/c2ccc([N+](=O)[O-])cc2)SCc2ccc(Cl)cc2)cc1` , what call appears in the results of this test?
0

For `NC(=NCCCOc1ccc(F)cc1)Nc1ccc(I)cc1` , what call appears in the results of this test?
0

For N#CC1C(C#N)C2c3ccccc3C=CN2C1C(=O)c1ccc(Br)cc1 (stereo not given) , what call appears in the results of this test?
0

For `CCCCOc1ccc(/C(C)=N/Nc2cc(C)nc3ccc(Br)cc23)cc1` , what call appears in the results of this test?
0

For COc1ccc(C(=O)Nc2cccc(C3CCc4c(cc(OC)c(OC)c4OC)O3)c2)cc1 (stereo not given) , what call appears in the results of this test?
0

For `COc1cccc(-c2nc3occn3c2-c2ccnc(NCCCNS(=O)(=O)c3ccc(C(F)(F)F)cc3)n2)c1` , what call appears in the results of this test?
0

For Cn1ccc2c1CC1CN(Cc3ccco3)C(=O)C1C2C(=O)O (stereo not given) , what call appears in the results of this test?
0

For CCCCCCCCO/N=C\c1c2c(O)c3c(O)c(C)c4c(c3c1O)C(=O)C(C)(O/C=C\C(OC)C(C)C(OC(C)=O)C(C)C(O)C(C)C(O)C(C)/C=C\C=C(\C)C(=O)N2)O4 (stereo not given) , what call appears in the results of this test?
1

---

test system: OVCAR-8 ovarian; experiment: NCI-60 one-dose screen, 48 h (100 = growth as untreated, 0 = no growth, -100 = all killed); conditions: 10 µM unless noted
About 83,000 compounds went through this panel and 20% of them were active in at least one assay; those are over-represented in the sample as a whole.
Reported growth values are given for each entry in this list.
Numeric answer only, unit % assumed.

Field: example entries. Status: answers known.
[
  {
    "smiles_string": "O=C(/C(=C/c1ccc([N+](=O)[O-])cc1)SCc1ccc(F)cc1)c1ccc(F)cc1",
    "unit_of_measure": "%",
    "growth": 93.1
  },
  {
    "smiles_string": "CC1(C)CC[C@]23CC[C@]4(C)[C@H](CC[C@@H]5[C@@]6(C)CCCNC(C)(C)[C@@H]6CC[C@]54C)[C@H]2[C@H]1OC3",
    "unit_of_measure": "%",
    "growth": -45.6
  },
  {
    "smiles_string": "CCCCCN1C=C/C(=C\\C(=O)N2CCCc3ccccc32)c2ccccc21",
    "unit_of_measure": "%",
    "growth": 89.3
  },
  {
    "smiles_string": "COc1cc(CC(=O)c2ccc(O)c(OC)c2)ccc1O",
    "unit_of_measure": "%",
    "growth": 97.9
  }
]

With those in mind, consider the next compound.
Which growth is reported with OVCAR-8 ovarian for this entry: `Cc1cccc(-c2cn3ccnc3c(-c3ccc4ncn(Cc5ccccc5)c4c3)n2)c1` ?
88.5

---

System: UACC-62 melanoma
Test: NCI-60 one-dose screen, 48 h (100 = growth as untreated, 0 = no growth, -100 = all killed)
Conditions: 10 µM unless noted
Procedure: Growth inhibition of the UACC-62 human tumor cell line is measured as a screen for anti-cancer activity. Cells are grown in 96 well plates and exposed to the test compound for 48 hours. Compounds are tested at a single concentration, which is 10^-5 M for most compounds. The reported endpoint is percent growth (GI% or GIPRCNT), where numbers from 0 - 100% represent growth inhibition, and numbers from -100% - 0 represent cell death. For example, a value of 40 represents 60% growth inhibition. […]
About 83,000 compounds went through this panel and 20% of them were active in at least one assay; those are over-represented in the sample as a whole.
experimental_readout: growth (%)
Numeric answer only, unit % assumed.

// growth lookup, key: `O=C(O)c1ccc(-c2nn(-c3ccc(C(F)(F)F)cc3)cc2CNc2ccc(Oc3ccccc3)cc2)cc1`
77.5

// growth lookup, key: `CC(=O)Oc1ccc(/C=N/NC(N)=S)nc1`
59.3

// growth lookup, key: `CCc1ccc(CNc2ccc(N3CCOCC3)c(C(=O)O)c2)cc1`
102

// growth lookup, key: `O=C(Nc1ccccc1C(=O)N/N=C(\c1ccccc1)c1ccccn1)c1ccc(F)cc1`
1.28

// growth lookup, key: `CNC(=O)c1cncc(Cn2nc(C)c(NC(=O)c3ccc(COc4ccc(C(F)(F)F)cc4C)cc3)c2C)c1`
64.7

// growth lookup, key: `N#C/C(=C\c1ccc(Cl)cc1)n1nnc2cc(F)c(F)cc21`
21

// growth lookup, key: `O=[N+]([O-])c1cc(Br)c2cccc3c2c1CC3`
89

// growth lookup, key: `O=S(=O)(NCCNc1nccc(-c2c(-c3cccc(O)c3)nc3occn23)n1)c1ccccc1`
8.22

// growth lookup, key: `COc1ccc(C(=O)NNc2nc(Cl)nc(N3CCN(C(c4ccccc4)c4ccccc4)CC3)n2)cc1`
33.1

// growth lookup, key: CC(Sc1nc2sc3c(c2c(=O)n1-c1ccc(Cl)cc1)CCCC3)C(=O)Nc1nc(-c2ccc(Br)cc2)cs1 (stereo not given)
88.9
